Experiment: CellTiter-Glo luminescent readout of SW480 viability loss, NPC library primary (AID 1117343)
Conditions: CellTiter-Glo luminescence; at 20 µM (top of the series)
Active and inactive are the calls of the source.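 How the source made its calls: active means compounds that lower viability of the colon cancer cells in the luminescence readout, with no numeric limit stated; inactive means the rest.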
Hi there, use one of these labels in your reply, thanks! active, inactive

What classification did `Cc1cccc(Nc2ccncc2S(=O)(=O)NC(=O)NC(C)C)c1` end up with in this test?
inactive

What classification did CCO[C@@H]1O[C@H](C(COCc2ccccc2)OCc2ccccc2)[C@H](OCc2ccccc2)[C@H]1O (stereo not given in full) end up with in this test?
active

What classification did CC1(C)S[C@@H]2[C@H](NC(=O)C(c3ccccc3)S(=O)(=O)O)C(=O)N2[C@H]1C(=O)O (stereo not given in full) end up with in this test?
inactive

What classification did `CC(=O)S[C@@H]1CC2=CC(=O)CC[C@]2(C)[C@H]2CC[C@@]3(C)[C@@H](CC[C@@]34CCC(=O)O4)[C@H]12` end up with in this test?
inactive

What classification did `C/C=C/C=N/NC(=O)c1ccncc1` end up with in this test?
inactive
